measured.on: DAO in SK-N-SH neuroblastoma cells (Homo sapiens)
Construct: endogenous in cells; host or cells: SK-N-SH neuroblastoma cells (ATCC)
Sequence (P14920 whole entry): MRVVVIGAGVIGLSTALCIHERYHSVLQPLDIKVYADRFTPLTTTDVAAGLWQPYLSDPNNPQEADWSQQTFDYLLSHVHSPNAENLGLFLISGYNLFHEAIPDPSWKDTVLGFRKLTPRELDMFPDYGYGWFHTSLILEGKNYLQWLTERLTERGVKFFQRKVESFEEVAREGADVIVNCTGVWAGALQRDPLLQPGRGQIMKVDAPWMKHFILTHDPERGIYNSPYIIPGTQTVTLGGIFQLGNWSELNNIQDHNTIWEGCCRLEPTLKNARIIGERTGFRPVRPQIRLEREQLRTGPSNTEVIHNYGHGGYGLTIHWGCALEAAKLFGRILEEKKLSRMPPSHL
experiment.notes: Cell-based DAO assay in SK-N-SH cells
Design: key: fraction of DMSO-control DAO activity (1 = DMSO)
recorded.conditions: SK-N-SH 1.25*10^5 cells/well, drug treated for 3.5 hr, 100 uM
metric.name: Relative DAO activity normalize to DMSO at Final Conc. 100 uM
Numbers only.

compound	data.value
COc1c(C)cnc(CN(Cc2ncc(C)c(OC)c2C)c2nc3cc(C(=O)O)ccc3n2CCC2=CCCCC2)c1C	0.58

Give Relative DAO activity normalize to DMSO at Final Conc. 100 uM for all compounds that follow.
1. COc1c(C)cnc(C[S+]([O-])c2nc3cc(OP(=O)(Oc4ccccc4)Oc4ccccc4)ccc3[nH]2)c1C (stereo not drawn)
2. COc1c(C)cnc(C[S+]([O-])c2nc3cc(OC(=O)C4CC4)ccc3[nH]2)c1C (stereo not drawn)
3. COC(=O)c1ccc2c(c1)N=C(N(Cc1ncc(C)c(OC)c1C)Cc1ncc(C)c(OC)c1C)N(Cc1ccco1)C2
4. CCCCC(=O)Oc1ccc2[nH]c([S+]([O-])Cc3ncc(C)c(OC)c3C)nc2c1 (stereo not drawn)

Reply |
1. 0.49
2. 0.58
3. 0.74
4. 0.62

Ask | May I ask what Relative DAO activity normalize to DMSO at Final Conc. 100 uM has been recorded for C/C=C\C(=O)Oc1ccc2[nH]c([S+]([O-])Cc3ncc(C)c(OC)c3C)nc2c1 (stereo not drawn) ?
Reply | 0.36

###

So I've got a bunch of molecules here, and I need their log10 IC50 values.
measured.on: DAO in SK-N-SH neuroblastoma cells (Homo sapiens)
Construct: endogenous in cells
experiment.notes: Cell-based DAO assay in SK-N-SH cells
recorded.conditions: SK-N-SH 1.25*10^5 cells/well, drug treated for 3.5 hr, 50 mM D-serine
Short version: log10 scale, IC50, µM.

molecule	log10 IC50
O=c1[nH]oc2ccc(Cl)cc12 [CBIO, reference compound]	2.59
COc1c(C)cnc(C[S+]([O-])c2nc3cc(OP(=O)(Oc4ccccc4)Oc4ccccc4)ccc3[nH]2)c1C (stereo not shown)	1.54
COc1c(C)cnc(CSc2nc3cc(C(=O)O)ccc3n2CCC2=CCCCC2)c1C	1.87
COc1c(C)cnc(C[S+]([O-])c2nc3cc(OC(=O)Cc4ccccc4)ccc3[nH]2)c1C (stereo not shown)	2.08
COc1c(C)cnc(C[S+]([O-])c2nc3cc(OC(=O)C=C(C)C)ccc3[nH]2)c1C (stereo not shown)	2.09
CCCCC(=O)Oc1ccc2[nH]c([S+]([O-])Cc3ncc(C)c(OC)c3C)nc2c1 (stereo not shown)	2.27

Next molecule, please.
Ask | May I ask what log10 IC50 has been recorded for COc1c(C)cnc(C[S+]([O-])c2nc3ccc(O)cc3[nH]2)c1C (stereo not shown) [RS-D7, reference compound] ?
Reply | 2.15

###

measured.on: DAO in SK-N-SH neuroblastoma cells (Homo sapiens)
Construct: endogenous in cells; host or cells: SK-N-SH neuroblastoma cells (ATCC)
experiment.notes: Cell-based DAO assay in SK-N-SH cells
Set-up: key: fraction of DMSO-control DAO activity (1 = DMSO)
recorded.conditions: SK-N-SH 1.25*10^5 cells/well, drug treated for 3.5 hr, 10 uM
Description: The SK-N-SH neuroblastoma cell line was purchased from American Type Culture Collection (ATCC). It was cultured in MEM media (Invitrogen/GIBCO, Rockville, Md.) supplemented with 10% fetal bovine serum, 1×NEAA (Invitrogen/GIBCO) at 37° C. with 5% CO2 in a humidified atmosphere. Cells were trypsinized and plated into a black 96-well plate (NUNC No. 237108) at a density of 125,000 cells/well in 50 μl before cell-based DAO assay. […]
metric.name: Relative DAO activity normalize to DMSO at Final Conc. 10 uM
Answers are plain numbers.

Below are worked cases with known answers.
molecule	data.value
COC(=O)c1ccc2c(c1)N=C(NCc1ncc(C)c(OC)c1C)N(CCC1=CCCCC1)C2	1.02
COc1c(C)cnc(C[S+]([O-])c2nc3cc(OC(C)=O)ccc3[nH]2)c1C (centres unmarked)	0.99
CCCCC(=O)Oc1ccc2[nH]c([S+]([O-])Cc3ncc(C)c(OC)c3C)nc2c1 (centres unmarked)	1.00
COc1c(C)cnc(C[S+]([O-])c2nc3cc(OC(=O)c4ccco4)ccc3[nH]2)c1C (centres unmarked)	0.98

Next molecule, please.
Ask | May I ask what Relative DAO activity normalize to DMSO at Final Conc. 10 uM has been recorded for O=c1[nH]oc2ccc(Cl)cc12 [CBIO, reference compound] ?
Reply | 1.00
